Entries annotated with measured melting point

Some entries whose results are on file:
structure-string: Cc1ncccc1Oc1ccc(NC(=O)NCCc2ccccc2)cn1
melting point: 136 to 138 °C

structure-string: Cc1ncccc1Oc1ccc(NC(=O)Nc2ccc3[nH]c4c(c3c2)CCNCC4)cn1
melting point: 205 to 207 °C

structure-string: Cc1ncccc1Oc1ccc(NC(=O)Nc2ccc3[nH]c4c(c3c2)CCN(C(=O)OC(C)(C)C)CC4)cn1
melting point: 173 to 175 °C

Proceeding to the next compound to report its melting point.
Problem: I would be grateful if you could share the reported melting point for Cc1ncccc1Oc1ccc(NC(=O)N2CCc3c(n(C)c4ccccc34)CC2)cn1 .
Solution: 159 to 160 °C

Values from patent US7291738B2
